Assay: Cytotoxicity against mouse NIH/3T3 cells after 48 hrs by neutral red dye uptake assay
Assay type: cell-based, NIH3T3
Conditions: read-out: TC50
Entries and their CC50 at 48 h values follow.
outcome.measure: CC50 at 48 h

1. COc1ccc(C2CCN(Cc3ccc(NC(C)=O)cc3)CC2)cc1NC(=O)c1ccccc1
92.2 µM
2. CCOc1ccc(C2CCN(Cc3ccc(NC(C)=O)cc3)CC2)cc1NC(=O)c1cnccn1
> 100 µM
3. COc1ccc(C2CCN(Cc3ccc(N)cc3)CC2)cc1NC(=O)c1cnccn1
> 100 µM
4. CCOc1ccc(C2CCN(Cc3ccc([N+](=O)[O-])cc3)CC2)cc1NC(=O)c1cnccn1
> 100 µM
5. CCOc1ccc(C2CCN(Cc3ccc(N(CC)CC)cc3)CC2)cc1NC(=O)c1cnccn1
46.9 µM
6. CCOc1ccc(C2CCN(Cc3ccc(N(CC)CC)cc3)CC2)cc1NC(=O)c1ccccc1
49.5 µM

* * *

Target: UniProt P51681
Assay: Antagonist activity at CCR5 (unknown origin) expressed in MOLT4 cells transfected with Gqi5 assessed as inhibition of RANTES-induced calcium ion mobilization after 15 mins by microplate reader method
outcome.measure: IC50

1. CCN(CC)c1ccc(CN2CCC(c3ccc(OC)c(NC(=O)c4cnccn4)c3)CC2)cc1
56 µM
2. COc1ccc(C2CCN(Cc3ccc([N+](=O)[O-])cc3)CC2)cc1NC(=O)c1cnccn1
73 µM
3. CC(=O)Nc1ccc(CN2CCC(c3ccc(OC(C)C)c(NC(=O)c4cnccn4)c3)CC2)cc1
88.1 µM
4. CCOc1ccc(C2CCN(Cc3ccc(NC(C)=O)cc3)CC2)cc1NC(=O)c1cnccn1
47 µM
5. CCOc1ccc(C2CCN(Cc3ccc(N)cc3)CC2)cc1NC(=O)c1cnccn1
43.5 µM
6. CCN(CC)c1ccc(CN2CCC(c3ccc(OC)c(NC(=O)c4ccccc4)c3)CC2)cc1
90 µM
7. CC(=O)Nc1ccc(CN2CCC(c3ccc(OC(C)C)c(NC(=O)c4ccccc4)c3)CC2)cc1
92.2 µM
8. COc1ccc(C2CCN(Cc3ccc(NC(C)=O)cc3)CC2)cc1NC(=O)c1cnccn1
59 µM
9. COc1ccc(C2CCN(Cc3ccc([N+](=O)[O-])cc3)CC2)cc1NC(=O)c1ccccc1
28.7 µM

* * *

Target: C-C chemokine receptor type 5 (Homo sapiens, UniProt P51681)
Sequence (P51681 whole entry): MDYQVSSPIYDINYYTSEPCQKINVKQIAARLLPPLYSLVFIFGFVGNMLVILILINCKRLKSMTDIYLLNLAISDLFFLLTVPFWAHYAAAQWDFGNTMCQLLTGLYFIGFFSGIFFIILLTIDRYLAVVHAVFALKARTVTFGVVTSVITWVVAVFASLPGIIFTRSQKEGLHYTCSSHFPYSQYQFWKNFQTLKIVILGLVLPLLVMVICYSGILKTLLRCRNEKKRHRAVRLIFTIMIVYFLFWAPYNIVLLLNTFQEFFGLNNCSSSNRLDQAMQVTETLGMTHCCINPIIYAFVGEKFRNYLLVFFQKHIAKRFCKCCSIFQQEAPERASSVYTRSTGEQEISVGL
Test: Antagonist activity at CCR5 (unknown origin) expressed in MOLT4 cells transfected with Gqi5 assessed as inhibition of RANTES-induced calcium ion mobilization after 15 mins by microplate reader method
pIC50: −log10 of the molar value.
outcome.measure: pIC50

1. CCN(CC)c1ccc(CN2CCC(c3ccc(OC(C)C)c(NC(=O)c4cnccn4)c3)CC2)cc1
4.21
2. CCOc1ccc(C2CCN(Cc3ccc([N+](=O)[O-])cc3)CC2)cc1NC(=O)c1cnccn1
4.21
3. COc1ccc(C2CCN(Cc3ccc(NC(C)=O)cc3)CC2)cc1NC(=O)c1ccccc1
4.15
